Taken from PubChem BioAssay (NCI).

Below, each entry is listed with its recorded growth inhibition.
# protocol-details: NCI Yeast Anticancer Drug Screen. Data for the mec2-1 strain (AID 157)
# cond: S. cerevisiae mec2-1 strain, at 50.0 µM, active compounds read high
Compounds without any hit were thinned out: in the full panel of roughly 79,000, 15% have a hit. Activity calls are given as the source filed them. Rule as the data show it: active = growth inhibition above about 70%; inactive = the rest.

Worked cases, answers included:
molecule: [Cl][Pt+2][Cl].[NH-]CC(O)c1ccc2oc3ccccc3c2c1.[NH-]CC(O)c1ccc2oc3ccccc3c2c1 (stereo not drawn)
value-measured: -11.2% (inactive)
//
molecule: Cc1cccc(NC(=O)c2cccc([N+](=O)[O-])c2C(=O)O)c1C
value-measured: 11.9% (inactive)
//
molecule: COC1OC(CO)C(OC(C)=O)C(OC(C)=O)C1OC(C)=O (stereo not drawn)
value-measured: 16.5% (inactive)
//
molecule: CSC(=Nc1ccc(Br)cc1)NC(=O)c1cc([N+](=O)[O-])cc([N+](=O)[O-])c1
value-measured: 3.4% (inactive)
//
molecule: O=[N+]([O-])c1ccc(N=NNc2ccc(N=Nc3ccccc3)cc2)cc1
value-measured: -18.8% (inactive)
//
molecule: CCOC(=O)c1sc(N)nc1O
value-measured: -0.3% (inactive)
//
molecule: Cc1c2cnccc2c(C)c2c1c1ccccc1n2CCCCCCCl
value-measured: 69% (inactive)
//
molecule: CCCC(=O)OCCCCC1CCCO1 (stereo not drawn)
value-measured: 3.6% (inactive)
//
molecule: Cn1c(=O)[nH]c2c(-c3ccccc3)n[nH]c2c1=O
value-measured: -1.65% (inactive)
//
molecule: CCCCCCNC(=O)c1ccc(C(=O)NCCCCCC)cc1
value-measured: -13.3% (inactive)

Ask: Quote growth inhibition reported for CCN(C(=O)/C=C/c1ccccc1)C1CCCCC1 please.
Reply: 27.9% (inactive)

Ask: Quote growth inhibition reported for O=C(NCCc1ccccc1)c1ccc(Cl)cc1 please.
Reply: 9.8% (inactive)

Ask: Quote growth inhibition reported for COc1ccccc1Nc1nc(N)nc(N)c1N please.
Reply: -3.65% (inactive)

Ask: Quote growth inhibition reported for COc1cc(NS(C)(=O)=O)ccc1Nc1c2ccccc2nc2c1[nH]c1ccc(NC3OC(CO)C(O)C(O)C3O)cc12 (stereo not drawn) please.
Reply: -4.9% (inactive)

Ask: Quote growth inhibition reported for CC(=O)C(N=Nc1ccc(S(=O)(=O)NC2NCCC(C)N2)cc1)C(=O)Nc1ccccc1C (stereo not drawn) please.
Reply: 15.8% (inactive)

Ask: Quote growth inhibition reported for CC1CC(C)NC(C)C1 (stereo not drawn) please.
Reply: -25.6% (inactive)

Ask: Quote growth inhibition reported for O=C(Cc1n[nH]c(=S)nc1CC(=O)c1cccnc1)c1cccnc1 please.
Reply: 12.2% (inactive)

Ask: Quote growth inhibition reported for CCN(CC)CCNC(=O)c1ccc(C)c(OCc2ccccc2)c1[N+](=O)[O-] please.
Reply: -9.25% (inactive)
